These data points were gathered from patent US20230312564A1.

- Test system: Colo-205 transplanted tumor
- TEST_DETAILS: Growth inhibition of nude mice Colo-205 transplanted tumor
- Type: in vivo
- CONDITION_DESCRIPTION: 50 mg/kg, qdx21, po; D0
// Initial weight (D0) lookup, one value per entry
MEASURED_METRIC: Initial weight (D0) (g)

CC(C)Nc1cc(-c2c[nH]c(C(=O)N[C@H](CO)c3cccc(Cl)c3)c2)c(Cl)cn1 [BVD523, reference compound]; 19.8
Cc1cccc([C@@H](CO)NC(=O)[C@@H](C)N2Cc3ccc(-c4nc(NC5CCOCC5)ncc4F)c(F)c3C2=O)c1 [Embodiment 31]; 20.1
C[C@H](C(=O)N[C@H](CO)c1cccc(Cl)c1)N1Cc2ccc(-c3nc(NC4CCOCC4)ncc3F)c(F)c2C1=O [Embodiment 37]; 23.3
COc1cc(F)cc([C@@H](CO)NC(=O)[C@@H](C)N2Cc3ccc(-c4nc(NC5CCOCC5)ncc4F)c(F)c3C2=O)c1 [Embodiment 40]; 21.4
